- System: HL-60(TB) leukemia
- PROTOCOL NOTES: NCI tumour cell line growth inhibition, 48 h
MEASUREMENT KIND: TGI

MOLECULE	MEASUREMENT KIND	RESULT
NCC(Cc1ccccc1)P(=O)(O)O (configuration not stated)	TGI	> 100 µM
COc1cccc(Nc2nc(NS(=O)(=O)c3cc(C)c(Cl)cc3S)n[nH]2)c1	TGI	> 100 µM

// next item, TGI requested
Ask: Dear colleague, I am looking for the recorded TGI of the following molecule: COc1cc2c(cc1OC)C(SC)C(=O)N(Cc1cccc(OC)c1OC)CC2 (configuration not stated)
Reply: 5.63 µM

* * *

GI50 values for the molecules below.
- System: SF-539 CNS
- PROTOCOL NOTES: NCI tumour cell line growth inhibition, 48 h

Here's what some known entries look like.
MOLECULE	GI50
CCN(CCNc1ccc(C)c2sc3cc(Cl)ccc3c(=O)c12)CC(C)(C)O	5.54 µM
O=S(=O)(NCCCNc1nccc(-c2c(-c3cccc(F)c3)nc3occn23)n1)c1cccc2ccccc12	> 100 µM
N#Cc1cccc(C2C3=C(COC3=O)N(CCO)c3cc4c(cc32)CCC4)c1 (stereo unspecified)	0.112 µM
CC1=NN(c2nc(N)nc(/C=C\c3ccccc3)n2)C(C)(C)C1	6.25 µM

Ask: Please state recorded GI50 (tested on SF-539 CNS) of Cc1n(Cc2ccc3ccccc3n2)cc[n+]1Cc1ccc2ccccc2c1
Reply: 0.579 µM

Ask: // fetch SF-539 CNS GI50 for c1ccc2c(c1)[O][Sn][O]2
Reply: 26.2 µg/mL

* * *

- Test system: PC-3 prostate
- PROTOCOL NOTES: NCI tumour cell line growth inhibition, 48 h; in the data active = GI50 below about 0.43 µM; inactive = the rest
Pick one: active, inactive

Look over these answered cases.
MOLECULE	TARGET OF ASSAY	LABEL CLASS
CCN(CC)C(=S)SSCCO	PC-3 prostate	inactive
COC(=O)c1ccc2c(c1)C(=O)c1c-2n(CCCCl)c(=O)c2cc(OC)c(OC)cc12	PC-3 prostate	inactive
Cc1ccccc1CNc1c2ccccc2nc2ccccc12	PC-3 prostate	inactive
Nc1n[nH]c2ccc([C@@H]3Nc4c(F)cc5[nH]ncc5c4[C@H]4C5CCC(C5)[C@@H]34)cc12 (stereo partly drawn)	PC-3 prostate	active

Ask: Check the results log: what was the call for Cc1ccc(O)cc1Nc1ccnc2cc(-c3ccccn3)ccc12 ?
Reply: inactive

Ask: Given CCOC(=O)C1=CSC2=NC3=C(CCC/C3=C\c3cc(OC)c(OC)c(OC)c3)C(c3cc(OC)c(OC)c(OC)c3)N12 (stereo not drawn) , state the outcome it received in this test.
Reply: inactive

Ask: // param item: O=C(CN(/C=C/C(=O)C(F)(F)F)c1ccccc1)c1ccc(F)cc1 ; yields the recorded call
Reply: inactive

Ask: Returns: the outcome recorded for Cc1ccc(-c2nc(C(Cl)Cl)nc3cc(C)nn23)cc1 in this assay.
Reply: inactive

* * *

- Test system: NCI-H226 lung
- PROTOCOL NOTES: NCI tumour cell line growth inhibition, 48 h; in the data active = GI50 below about 0.43 µM; inactive = the rest
One label from this list, please: active, inactive

MOLECULE	LABEL CLASS
C=CC[PH+](c1ccccc1)c1ccccc1.C=CC[PH+](c1ccccc1)c1ccccc1.[Pt+2].[S-]c1ncccn1.[S-]c1ncccn1	inactive
O=C(Nc1ccc(Br)cc1)Nc1cccc(Br)c1	inactive
Oc1ccc(-c2[nH]c3ccccc3c2-c2nc3ccccc3o2)cc1	inactive
CC(=O)OC1COC(Oc2c(C)c3c4c(c2O)[C@@H](C)CC[C@@H]4[C@@H](C)C[C@H]3C=C(C)C)C(O)C1O (some centres undefined)	inactive
Cc1ccc(NC(=O)c2ccc(NC3=C(Cl)C(=O)N(Cc4ccccc4)C3=O)cc2)cc1Cl	inactive

Ask: I'd appreciate the recorded outcome for Nc1c(C(=O)Nc2ccccn2)sc2nc3c(cc12)CCCCCC3 from this test.
Reply: inactive

* * *

- System: SF-295 CNS
- PROTOCOL NOTES: NCI tumour cell line growth inhibition, 48 h
// TGI lookup, one value per entry
Answer format: numeric, µM implied, no suffix.

Example cases with answers are listed next.
MOLECULE	UNIT TAG	TGI
O=S(=O)(/N=C(\NO)Nc1ccc(Cl)cc1)c1cc(S(=O)(=O)c2ccccc2)cs1	µM	32.7
Nc1c(-c2nc3ccccc3s2)[n+]([O-])c2ccccc2[n+]1[O-]	µM	72.5
CC(=O)OC1COC(Oc2c(C)c3c4c(c2O)[C@@H](C)CC[C@@H]4[C@@H](C)C[C@H]3C=C(C)C)C(O)C1O (some centres not stated)	µM	35.3
NC(N)=N/N=C/c1c(-c2ccc(Cl)cc2)nc2sc(Cl)cn12	µM	3.18
CC(=O)N1c2ccccc2[C@H]2CCc3c([nH]c4ccccc34)[C@H]21	µM	74.4

Ask: Quick one: TGI for COC(=O)C1=Nc2ccc(F)cc2/C1=C/c1sc(=S)[nH]c1O ?
Reply: 13.2

Ask: May I ask what TGI has been recorded for Cc1ccc(O)cc1Nc1ccnc2cc(-c3ccccn3)ccc12 ?
Reply: 6.89

Ask: // returns reported TGI for input Cc1ccccc1CNc1c2ccccc2nc2ccccc12
Reply: 11.8

Ask: TGI for CCOc1cc(/C=C/C(=O)CC(=O)/C=C/c2ccc(OC(=O)CNCCN(CC)CC)c(OCC)c2)ccc1OC(=O)CNCCN(CC)CC ?
Reply: 23.4

* * *

- Test system: COLO 205 colon
- PROTOCOL NOTES: NCI tumour cell line growth inhibition, 48 h
MEASUREMENT KIND: TGI

Example cases with answers are listed next.
MOLECULE	TARGET OF ASSAY	TGI
Nc1ccn([C@@H]2S[C@H](CO)[C@@H](O)[C@@H]2F)c(=O)n1	COLO 205 colon	> 100 µM
CC(=O)O[C@H]1C[C@@H](OC(C)=O)[C@@](C)(O)[C@@H]2[C@@H](OC(C)=O)[C@@]3(O)[C@H](/C=C(/CCl)[C@H]4O[C@H]4[C@@H](OC(C)=O)[C@@]12C)OC(=O)[C@@H]3C	COLO 205 colon	> 25 µM
O=c1[nH]nc(Cc2ccccc2)n1C1CC1	COLO 205 colon	> 100 µM

Ask: Find the recorded TGI belonging to COc1cccc(N2C(=O)C3CC(CC(C)(C)C)c4c([nH]c5ccccc45)C3C2=O)c1 (stereo unspecified) and report it.
Reply: > 10 µM

Ask: Please give the measured TGI for this molecule: CCCCC1Cc2cc(OC)ccc2-c2n1c1cc(OC)ccc1[n+]2C (stereo unspecified) (tested in a mixture with another compound)
Reply: 1.69 µM

* * *

- Test system: SK-MEL-2 melanoma
- PROTOCOL NOTES: NCI tumour cell line growth inhibition, 48 h
MEASUREMENT KIND: TGI (µM)
Kindly provide the numeric value in µM only, without the unit symbol.

For orientation, consider the following solved cases.
CHEMICAL STRING	TGI [µM]
COc1ccc(C(=O)/C=C/c2ccc(OCc3ccccc3)c(OC)c2)cc1OC	36.3
CCOC(=O)[C@@H]1C[C@@H]1c1ccc(O)c(O)c1	68.8

Here's the next entry for you.
Ask: Report TGI for CCN(CC)C(=O)CCCCCn1c2ccccc2c2c3c(c4c5ccccc5[nH]c4c21)C(=O)N(O)C3=O please.
Reply: 12.1

* * *

- Test system: MCF7 breast
- PROTOCOL NOTES: NCI tumour cell line growth inhibition, 48 h; in the data active means GI50 below about 0.43 µM; inactive means the rest
Classes to choose from: YES = active, NO = inactive

COMPOUND	TARGET OF ASSAY	LABEL CLASS
O=C(/C=C/c1cccc(Oc2ccc(Cl)cc2)c1)c1ccccc1	MCF7 breast	NO
COc1ccc(C(=O)/C=C/c2ccc(OCc3ccccc3)c(OC)c2)cc1OC	MCF7 breast	NO
CCc1c(C#N)c(SC(C(N)=O)c2ccccc2)nc(N2CCC(N)CC2)c1C#N (centres undefined)	MCF7 breast	NO
Nc1n[nH]c2ccc([C@@H]3Nc4c(F)cc5[nH]ncc5c4[C@H]4C5CCC(C5)[C@@H]34)cc12 (some centres undefined)	MCF7 breast	YES
CN1CCOCCOCCOc2ccccc2NC(=O)c2nc(cnc2N)-c2ccc(cc2)S1(=O)=O	MCF7 breast	YES

Ask: Hello, I am checking results. What call was entered for CCOC(=O)C1=CSC2=NC3=C(CCC/C3=C\c3cc(OC)c(OC)c(OC)c3)C(c3cc(OC)c(OC)c(OC)c3)N12 (centres undefined) ?
Reply: NO

Ask: Dear all, I need the recorded test outcome for Cc1nn2c(-c3nc4cc(Cl)c(Cl)cc4[nH]3)c(-c3ccc(F)cc3)nc2s1 , thank you.
Reply: NO

Ask: Please indicate how the test categorized COc1cc(OC)c(/C=C/C(=O)c2c(N)cc(OC)cc2OC)c(OC)c1 .
Reply: YES

Ask: Just curious, what result did CN(C)c1ccc2c(c1)OC(N)=C(C#N)C2c1ccc2c(c1)CCCN2C (centres undefined) get here?
Reply: NO

Data provenance is PubChem BioAssay (NCI).
